assay: chemical genetic growth profiling, strain panel (AID 1159580);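 further: tested at 20 µM; growth read once vehicle control cultures reached saturation at 30 °C; 1 = growth at the plate median or of vehicle wells; lower values mean less growth of the strain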; details: S. cerevisiae deletion strains, growth OD, locus YFL009W, strain cdc4, hits give low values
Among all 5,500 compounds or so, about 2,000 (36%) were called active. Not shown: some 18% with an inconclusive outcome. The list shows a part of the results.
endpoint_label: normalized growth
Form: value (number only, do not type unit).

Consider the following illustrative entries.
compound	normalized growth
CSc1sc(-c2ccn[nH]2)c(-c2ccccc2)c1C#N	0.97
CCOC(=O)C1C(c2ccc(Br)cc2)C(C(=O)OCC)C(O)(C(F)(F)F)NC1(O)C(F)(F)F (centres undefined)	0.998
N/C(=N/OC(=O)c1ccccc1Cl)c1ccc2nonc2c1	0.965
O=C(NNc1c(Cl)cccc1Cl)c1ccc([N+](=O)[O-])o1	0.918
Cc1c(C(=O)NCCNc2ccc(C(F)(F)F)cc2[N+](=O)[O-])cnn1-c1ccc(F)cc1	0.98
CC(/C=C/c1ccccc1)=N/OC(=O)c1ccccc1Cl	0.974
CCOC(=O)C(O)(c1ccc(NC(=O)Nc2ccc(Cl)cc2)cc1)C(F)(F)F (centres undefined)	0.997
CSc1nc(Sc2n[nH]c(-c3ccccc3)n2)cc(Sc2n[nH]c(-c3ccccc3)n2)n1	1
Cc1nc(C(F)(F)F)ccc1C(=O)Sc1nnc(-c2ccc(C(F)(F)F)nc2C)o1	0.946
CCC1(c2ccccc2)OC(c2cc(Cl)cc(Cl)c2O)Nc2ccccc21 (centres undefined)	0.962

Input CCCCCc1ccc(-c2nc(SCC(C)=O)n[nH]2)cc1 . Output normalized growth: 0.926

Input COC(=O)c1ccc(Oc2c(C(F)(F)F)oc3cc(O)ccc3c2=O)cc1 . Output normalized growth: 0.969

Input FC(F)(F)c1ccc(C2Sc3ccccc3N=C3c4ccccc4CC32)cc1 (centres undefined) . Output normalized growth: 1.01

Input Nc1ccc(N2CCN(c3ccc(C(F)(F)F)cn3)CC2)nc1 . Output normalized growth: 0.968

Input Cc1oc(-c2ccc(Cl)cc2)cc1C(=O)N1CCN(c2ccc(C(F)(F)F)cn2)CC1 . Output normalized growth: 0.967

Input Cc1c(NCN2C(=O)CCC2=O)cc2c(c1[N+](=O)[O-])C(C)(C)CC2(C)C . Output normalized growth: 0.957

Input O=C(Nc1ccc(OC(F)(F)F)cc1)Nc1cncc(C(F)(F)F)c1 . Output normalized growth: 0.982

Input Cc1nc(C(F)(F)F)ccc1-c1nnc(SC(=O)c2ccc(Cl)cc2)o1 . Output normalized growth: 0.868

Input O=C1CSC(=Nc2cc(Cl)cc(Cl)c2)N1Cc1cccnc1 . Output normalized growth: 0.986

---

test: chemical genetic growth profiling, strain panel (AID 1159580);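 further: tested at 20 µM; growth read once vehicle control cultures reached saturation at 30 °C; 1 = growth at the plate median or of vehicle wells; lower values mean less growth of the strain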; conditions: S. cerevisiae deletion strains, growth OD, locus YJL168C, strain set2, hits give low values
Screen size: about 5,500 compounds; about 2,000 (36%) were called active. About 18% were inconclusive and are not listed. The list shows a part of the results.
Hi! Just check whether normalized growth is below 1. Below gives T, equal or above gives F.

Past entries and their recorded results:
molecule	assigned_category
CCCC(=O)Nc1ncnc2c1ncn2C1O[C@@H]2COP(=O)(O)O[C@H]2[C@H]1OC(=O)CCC (some centres undefined)	F
COc1cc(OC)cc(OC)c1	T

Task: Quick check: normalized growth of CN1CCN(C(c2ccccc2)c2ccccc2)CC1 under 1?
Result: T

Task: Quick check: normalized growth of C[C@]12CCC3C(CC[C@H]4C[C@@H](O)CC[C@]34C)C1CCC2=O (some centres undefined) under 1?
Result: F
